Where do the numbers come from? From ChEMBL document CHEMBL2176901.

# System: MCF7
# assay procedure: Phototoxicity in 3.75 J/cm'2 UV-A irradiated human MCF7 cells after 72 hrs by MTT assay
# Assay type: functional, cell-based
# details: MCF7, light or radiation study
quantity measured: IC50 (µM)
The figure you give is taken to be in µM; do not add the unit.

{"chem smiles": "COc1nc2c(cc1S(=O)(=O)c1ccccc1)CCc1cn(Cc3ccccc3)cc1-2", "quantity measured": "IC50", "quantitative result": 7.5}

Prompt: Output IC50 of "CCOC(=O)c1c2c(c(C)n1C)-c1c(cc(S(=O)(=O)c3ccccc3)c(=O)n1C)CC2"
Response: 1.3

====

# System: MCF7
# assay procedure: Phototoxicity in 3.75 J/cm'2 UV-A irradiated human MCF7 cells after 72 hrs by MTT assay
# Format: functional, cell-based
# details: MCF7, light or radiation study
quantity measured: pIC50
As a rule, pIC50 stands for the negative log10 of the concentration, concentration in M.

Example molecules with recorded pIC50:
{"chem smiles": "Cn1c2c(cc(S(=O)(=O)c3ccccc3)c1=O)CCc1cn(Cc3ccccc3)cc1-2", "pIC50": 5.43}
{"chem smiles": "COc1nc2c(cc1S(=O)(=O)c1ccccc1)CCc1cn(C)cc1-2", "pIC50": 5.70}
{"chem smiles": "Cc1c2c(cn1Cc1ccccc1)CCc1cc(S(=O)(=O)c3ccccc3)c(=O)[nH]c1-2", "pIC50": 5.11}

Prompt: Answer with the recorded pIC50 of "CCOC(=O)c1c2c(c(C)n1Cc1ccccc1)-c1c(cc(S(=O)(=O)c3ccccc3)c(=O)n1C)CC2" only.
Response: 4.84

Prompt: Identify pIC50 associated with the molecule "CCOC(=O)c1c2c(c(C)n1Cc1ccccc1)-c1[nH]c(=O)c(S(=O)(=O)c3ccccc3)cc1CC2"
Response: 5.85
